# SYSTEM_TESTED: BP1253 (BpLOG) (Bordetella pertussis)
# Construct: recombinant BP1253 with C-terminal 6x His tag (BP1253-His)
# Sequence (Q7VYQ7 entry or part of it): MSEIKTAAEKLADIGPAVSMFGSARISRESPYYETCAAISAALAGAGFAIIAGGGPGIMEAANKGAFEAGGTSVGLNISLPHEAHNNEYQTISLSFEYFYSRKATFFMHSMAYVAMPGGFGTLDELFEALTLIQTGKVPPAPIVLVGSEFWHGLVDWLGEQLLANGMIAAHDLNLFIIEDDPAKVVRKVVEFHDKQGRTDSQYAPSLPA
# TEST_NAME: SPR (Biacore T200, steady state, amine-coupled BP1253-His); cleavage also shown by TLC
# Assay type: binding
Quick reference: Kd of the listed items.
PROPERTY_MEASURED: Kd (µM)

- COMPOUND_STRING: "Nc1nc2c(ncn2[C@@H]2O[C@H](COP(=O)(O)O)[C@@H](O)[C@H]2O)c(=O)[nH]1"
  PROPERTY_MEASURED: "Kd"
  VALUE_REPORTED: 38.6
- COMPOUND_STRING: "Nc1ncnc2c1ncn2[C@@H]1O[C@H](COP(=O)(O)O)[C@@H](O)[C@H]1O"
  PROPERTY_MEASURED: "Kd"
  VALUE_REPORTED: 5.7
